meta.source: paper PMC12541583

target: CYP2D6 (Homo sapiens); experiment: CYP interactions, CYP2D6
Sequence (P10635 whole entry, species assumed): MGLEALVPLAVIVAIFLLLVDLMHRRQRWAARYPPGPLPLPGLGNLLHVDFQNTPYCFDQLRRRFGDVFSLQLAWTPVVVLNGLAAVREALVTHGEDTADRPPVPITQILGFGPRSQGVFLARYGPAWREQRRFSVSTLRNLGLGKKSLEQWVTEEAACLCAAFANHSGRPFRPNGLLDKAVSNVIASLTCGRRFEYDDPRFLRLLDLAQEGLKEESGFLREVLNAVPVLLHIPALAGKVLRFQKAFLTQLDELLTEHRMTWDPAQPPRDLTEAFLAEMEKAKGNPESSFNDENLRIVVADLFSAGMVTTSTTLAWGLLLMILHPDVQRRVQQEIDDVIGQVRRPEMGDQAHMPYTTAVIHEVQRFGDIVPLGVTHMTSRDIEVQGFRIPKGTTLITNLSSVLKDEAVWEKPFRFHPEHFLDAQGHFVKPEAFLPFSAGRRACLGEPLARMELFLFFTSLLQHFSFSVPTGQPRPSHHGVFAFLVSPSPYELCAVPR
property_label: IC50

For reference, reported IC50 for CNC(=O)c1ccc(N2CCN(Cc3ccc4nc(C)c(=O)[nH]c4c3F)CC2)c(F)n1 stands at > 5 µM

----------
biological target: CYP2C19 (Homo sapiens); assay: CYP interactions, CYP2C19; type: in vitro ADME
Sequence (P33261 whole entry, species assumed): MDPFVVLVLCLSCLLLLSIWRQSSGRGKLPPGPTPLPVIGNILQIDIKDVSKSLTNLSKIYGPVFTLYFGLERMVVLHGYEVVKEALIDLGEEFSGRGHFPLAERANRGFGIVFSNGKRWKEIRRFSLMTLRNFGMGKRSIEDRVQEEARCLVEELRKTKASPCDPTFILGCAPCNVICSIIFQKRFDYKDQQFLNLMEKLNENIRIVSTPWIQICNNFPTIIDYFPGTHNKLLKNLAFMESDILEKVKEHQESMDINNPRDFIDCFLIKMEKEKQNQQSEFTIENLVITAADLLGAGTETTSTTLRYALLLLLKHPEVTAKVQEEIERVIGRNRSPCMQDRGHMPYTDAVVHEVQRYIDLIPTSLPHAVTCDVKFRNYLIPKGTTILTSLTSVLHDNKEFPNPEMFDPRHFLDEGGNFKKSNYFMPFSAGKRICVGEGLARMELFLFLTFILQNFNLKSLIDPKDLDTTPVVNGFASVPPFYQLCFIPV
property_label: IC50

Value (IC50, CYP2C19 (Homo sapiens)) for record CNC(=O)c1ccc(N2CCN(Cc3ccc4nc(C)c(=O)[nH]c4c3F)CC2)c(F)n1 = > 5 µM

----------
molecular target: MDR1 (P-gp) (Homo sapiens, UniProt P08183); experiment: In vitro Pg-P efflux assay; assay type: in vitro ADME; conditions: not told
Sequence (P08183 whole entry, species assumed): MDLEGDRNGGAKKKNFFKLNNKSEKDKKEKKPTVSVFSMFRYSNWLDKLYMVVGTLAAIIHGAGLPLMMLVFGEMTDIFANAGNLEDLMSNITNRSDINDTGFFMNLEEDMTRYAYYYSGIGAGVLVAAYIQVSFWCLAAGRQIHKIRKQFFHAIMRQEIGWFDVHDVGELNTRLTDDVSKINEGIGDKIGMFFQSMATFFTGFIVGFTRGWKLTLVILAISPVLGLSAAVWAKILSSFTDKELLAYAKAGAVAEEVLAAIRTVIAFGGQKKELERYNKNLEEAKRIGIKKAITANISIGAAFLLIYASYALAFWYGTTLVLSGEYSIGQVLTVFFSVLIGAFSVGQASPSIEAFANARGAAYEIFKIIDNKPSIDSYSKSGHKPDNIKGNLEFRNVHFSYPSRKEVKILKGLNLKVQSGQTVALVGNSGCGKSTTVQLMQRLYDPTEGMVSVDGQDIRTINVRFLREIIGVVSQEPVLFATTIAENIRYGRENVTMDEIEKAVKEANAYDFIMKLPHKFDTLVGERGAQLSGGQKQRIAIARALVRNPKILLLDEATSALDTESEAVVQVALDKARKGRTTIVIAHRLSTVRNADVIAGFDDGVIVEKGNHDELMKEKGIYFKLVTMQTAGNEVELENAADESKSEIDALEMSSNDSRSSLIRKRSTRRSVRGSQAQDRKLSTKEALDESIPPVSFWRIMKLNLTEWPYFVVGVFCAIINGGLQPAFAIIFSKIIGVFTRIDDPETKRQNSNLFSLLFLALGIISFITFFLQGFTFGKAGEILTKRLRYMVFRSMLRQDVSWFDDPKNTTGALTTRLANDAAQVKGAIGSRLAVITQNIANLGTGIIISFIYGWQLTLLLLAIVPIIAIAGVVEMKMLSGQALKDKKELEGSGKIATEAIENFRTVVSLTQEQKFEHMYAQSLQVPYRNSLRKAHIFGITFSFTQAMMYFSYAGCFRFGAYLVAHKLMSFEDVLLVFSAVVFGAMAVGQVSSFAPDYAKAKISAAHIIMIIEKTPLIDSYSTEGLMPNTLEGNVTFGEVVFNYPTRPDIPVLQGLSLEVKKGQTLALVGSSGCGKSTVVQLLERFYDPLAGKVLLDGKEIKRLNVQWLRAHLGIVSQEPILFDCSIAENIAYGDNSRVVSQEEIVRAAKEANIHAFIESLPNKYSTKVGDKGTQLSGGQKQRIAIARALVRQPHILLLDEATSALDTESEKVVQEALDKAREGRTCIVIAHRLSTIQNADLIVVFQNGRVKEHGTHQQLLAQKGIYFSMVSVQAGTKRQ
property_label: Papp A→B
Please state the number and follow it with the unit.

Value (Papp A→B, MDR1 (P-gp) (Homo sapiens, UniProt P08183)) for record CNC(=O)c1ccc(N2CCN(Cc3ccc4nc(C)c(=O)[nH]c4c3F)CC2)c(F)n1 [compound 5] = 42.5 ×10⁻⁶ cm/s
